# studyTarget: Ghrelin/GHRP/GHS Receptor (Rattus norvegicus)
# protocolSummary: In vivo GH release in rat (serum GH by RIA after i.v. peptide)
# testSettings: Table 3; peptide alone 1 μg i.v.
Where no end group is shown, it is not given here. [ ]: non-standard residue; d: D form. d2Nal = N[C@H](Cc1ccc2ccccc2c1)C(=O)O
assayMetric: Unstimulated Basal GH Release from rat (ng/mL)
The response must be a number in ng/mL with no trailing unit.

Which Unstimulated Basal GH Release from rat value is on record for DβNal-Ala-Trp-DPhe-Ala-NH2 ([d2Nal]AW[dF]A-NH2; N-terminus assumed; SMILES C[C@H](NC(=O)[C@@H](Cc1ccccc1)NC(=O)[C@H](Cc1c[nH]c2ccccc12)NC(=O)[C@H](C)NC(=O)[C@H](N)Cc1ccc2ccccc2c1)C(N)=O) ?
623

* * *

The entries below come with measured Unstimulated Basal GH Release from rat values attached.
# studyTarget: Ghrelin/GHRP/GHS Receptor (Rattus norvegicus, UniProt O08725)
# Sequence (O08725 whole entry): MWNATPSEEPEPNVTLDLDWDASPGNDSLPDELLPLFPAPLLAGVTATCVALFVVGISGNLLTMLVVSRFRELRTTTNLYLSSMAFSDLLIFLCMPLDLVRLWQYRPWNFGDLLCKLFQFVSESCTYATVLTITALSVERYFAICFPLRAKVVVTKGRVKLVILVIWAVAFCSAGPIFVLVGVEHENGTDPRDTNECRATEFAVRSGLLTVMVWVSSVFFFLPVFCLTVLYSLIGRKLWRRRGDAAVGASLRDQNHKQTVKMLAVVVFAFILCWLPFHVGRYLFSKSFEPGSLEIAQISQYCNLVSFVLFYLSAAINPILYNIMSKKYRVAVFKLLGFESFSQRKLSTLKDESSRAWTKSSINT
# protocolSummary: In vivo GH release in rat (serum GH by RIA after i.v. peptide)
# testSettings: Table 3; peptide alone 100 μg i.v.
Where no end group is shown, it is not given here. [ ]: non-standard residue; d: D form. d2Nal = N[C@H](Cc1ccc2ccccc2c1)C(=O)O; dCha = N[C@H](CC1CCCCC1)C(=O)O; Nle = CCCC[C@H](N)C(=O)O; βAla = NCCC(=O)O
The response must be a number in ng/mL with no trailing unit.

Recorded Unstimulated Basal GH Release from rat, per entry:
DAla-DβNal-Ala-Ala-DAla-Lys-NH2 ([dA][d2Nal]AA[dA]K-NH2; N-terminus assumed; SMILES C[C@H](NC(=O)[C@H](C)NC(=O)[C@@H](Cc1ccc2ccccc2c1)NC(=O)[C@@H](C)N)C(=O)N[C@H](C)C(=O)N[C@@H](CCCCN)C(N)=O)
185
DAla-DcyclohexylAla-Ala-Phe-DPhe-Nle-NH2 ([dA][dCha]AF[dF][Nle]-NH2; N-terminus assumed; SMILES CCCC[C@H](NC(=O)[C@@H](Cc1ccccc1)NC(=O)[C@H](Cc1ccccc1)NC(=O)[C@H](C)NC(=O)[C@@H](CC1CCCCC1)NC(=O)[C@@H](C)N)C(N)=O)
697

Proceed to the following item.
Which Unstimulated Basal GH Release from rat value is on record for βAla-Trp-DAla-DTrp-Phe-NH2 ([βAla]W[dA][dW]F-NH2; N-terminus assumed; SMILES C[C@@H](NC(=O)[C@H](Cc1c[nH]c2ccccc12)NC(=O)CCN)C(=O)N[C@H](Cc1c[nH]c2ccccc12)C(=O)N[C@@H](Cc1ccccc1)C(N)=O) ?
636

* * *

# studyTarget: Ghrelin/GHRP/GHS Receptor (Rattus norvegicus, UniProt O08725)
# protocolSummary: In vitro GH release from isolated pituitary glands, pituitary incubation method
# Type: cell-based
# testSettings: Table 1; peptide antagonist 3 μg/ml + stimulator His-DTrp-Ala-Trp-DPhe-Lys-NH2 10 ng/ml
Where no end group is shown, it is not given here. [ ]: non-standard residue; d: D form. The star is where a group is joined. Desaminotyrosyl = O=C(CCc1ccc(O)cc1)*
Lab note: cut-off is 100 ng/mL. Strictly less in Change in stimulated GH release versus preincubation (delta) is Satisfied. Exactly 100 ng/mL or more is Not satisfied.

DesaminoTyr-DTrp-Ala-Trp-DPhe-NH2 ([Desaminotyrosyl][dW]AW[dF]-NH2; SMILES C[C@H](NC(=O)[C@@H](Cc1c[nH]c2ccccc12)NC(=O)CCc1ccc(O)cc1)C(=O)N[C@@H](Cc1c[nH]c2ccccc12)C(=O)N[C@H](Cc1ccccc1)C(N)=O)
Not satisfied

Determine whether this substance shows Change in stimulated GH release versus preincubation (delta) lower than 100 ng/mL (ties excluded): Tyr-DTrp-DLys-Trp-DPhe-NH2 (Y[dW][dK]W[dF]-NH2; N-terminus assumed; SMILES NCCCC[C@@H](NC(=O)[C@@H](Cc1c[nH]c2ccccc12)NC(=O)[C@@H](N)Cc1ccc(O)cc1)C(=O)N[C@@H](Cc1c[nH]c2ccccc12)C(=O)N[C@H](Cc1ccccc1)C(N)=O)
Satisfied

Ok, now His-DTrp-DLys-Trp-DPhe-Lys-NH2 (H[dW][dK]W[dF]K-NH2; N-terminus assumed; SMILES NCCCC[C@H](NC(=O)[C@@H](Cc1ccccc1)NC(=O)[C@H](Cc1c[nH]c2ccccc12)NC(=O)[C@@H](CCCCN)NC(=O)[C@@H](Cc1c[nH]c2ccccc12)NC(=O)[C@@H](N)Cc1c[nH]cn1)C(N)=O)
Not satisfied

Ok, now His-DTrp-DTrp-Phe-Met-NH2 (H[dW][dW]FM-NH2; N-terminus assumed; SMILES CSCC[C@H](NC(=O)[C@H](Cc1ccccc1)NC(=O)[C@@H](Cc1c[nH]c2ccccc12)NC(=O)[C@@H](Cc1c[nH]c2ccccc12)NC(=O)[C@@H](N)Cc1c[nH]cn1)C(N)=O)
Not satisfied

Ok, now His-DTrp-DLys-Trp-DPhe-NH2 (H[dW][dK]W[dF]-NH2; N-terminus assumed; SMILES NCCCC[C@@H](NC(=O)[C@@H](Cc1c[nH]c2ccccc12)NC(=O)[C@@H](N)Cc1c[nH]cn1)C(=O)N[C@@H](Cc1c[nH]c2ccccc12)C(=O)N[C@H](Cc1ccccc1)C(N)=O)
Not satisfied

Ok, now DesaminoTyr-DTrp-DLys-Trp-DPhe-NH2 ([Desaminotyrosyl][dW][dK]W[dF]-NH2; SMILES NCCCC[C@@H](NC(=O)[C@@H](Cc1c[nH]c2ccccc12)NC(=O)CCc1ccc(O)cc1)C(=O)N[C@@H](Cc1c[nH]c2ccccc12)C(=O)N[C@H](Cc1ccccc1)C(N)=O)
Satisfied

* * *

The entries below come with measured Unstimulated Basal GH release from cell cultures of pituitary cells values attached.
# studyTarget: Ghrelin/GHRP/GHS Receptor (Rattus norvegicus)
# protocolSummary: In vitro GH release from cell culture of pituitary cells
# Type: cell-based
# Set-up: After dispersion, the cells were collected by centrifugation, wash with DMEM and placed into culture well; endogenous in cells; host or cells: dispersed primary rat anterior pituitary cells
# testSettings: Table 8; peptide antagonist dosage 100 (head prints μg/i.v.)
Where no end group is shown, it is not given here. [ ]: non-standard residue; d: D form. dPal = not defined here

For the record DPhe-Ala-Phe-DPal-NH2 ([dF]AF[dPal]-NH2; reading uncertain; also: printed as DPhe-Ala-Phe-DPal-NH2) , what value of Unstimulated Basal GH release from cell cultures of pituitary cells is listed for Ghrelin/GHRP/GHS Receptor (Rattus norvegicus)?
146 ± 21 ng/mL

* * *

# studyTarget: Ghrelin/GHRP/GHS Receptor (Rattus norvegicus)
# protocolSummary: In vitro GH release from isolated pituitary glands, pituitary incubation method
# Type: cell-based
# testSettings: Table 1; peptide antagonist 30 μg/ml + stimulator His-DTrp-Ala-Trp-DPhe-Lys-NH2 10 ng/ml
Where no end group is shown, it is not given here. [ ]: non-standard residue; d: D form. The star is where a group is joined. Desaminotyrosyl = O=C(CCc1ccc(O)cc1)*
The entries below come with measured Change in stimulated GH release versus preincubation (delta) values attached.
The response must be a number in ng/mL with no trailing unit.

Recorded Change in stimulated GH release versus preincubation (delta), per entry:
His-DTrp-DTrp-Phe-Met-NH2 (H[dW][dW]FM-NH2; N-terminus assumed; SMILES CSCC[C@H](NC(=O)[C@H](Cc1ccccc1)NC(=O)[C@@H](Cc1c[nH]c2ccccc12)NC(=O)[C@@H](Cc1c[nH]c2ccccc12)NC(=O)[C@@H](N)Cc1c[nH]cn1)C(N)=O)
-319
His-DTrp-DLys-Trp-DPhe-NH2 (H[dW][dK]W[dF]-NH2; N-terminus assumed; SMILES NCCCC[C@@H](NC(=O)[C@@H](Cc1c[nH]c2ccccc12)NC(=O)[C@@H](N)Cc1c[nH]cn1)C(=O)N[C@@H](Cc1c[nH]c2ccccc12)C(=O)N[C@H](Cc1ccccc1)C(N)=O)
91
Tyr-DTrp-DLys-Trp-DPhe-NH2 (Y[dW][dK]W[dF]-NH2; N-terminus assumed; SMILES NCCCC[C@@H](NC(=O)[C@@H](Cc1c[nH]c2ccccc12)NC(=O)[C@@H](N)Cc1ccc(O)cc1)C(=O)N[C@@H](Cc1c[nH]c2ccccc12)C(=O)N[C@H](Cc1ccccc1)C(N)=O)
-363

Proceed to the following item.
Which Change in stimulated GH release versus preincubation (delta) value is on record for DeaminoTyr-DTrp-Ser-Trp-DPhe-Lys-NH2 ([Desaminotyrosyl][dW]SW[dF]K-NH2; SMILES NCCCC[C@H](NC(=O)[C@@H](Cc1ccccc1)NC(=O)[C@H](Cc1c[nH]c2ccccc12)NC(=O)[C@H](CO)NC(=O)[C@@H](Cc1c[nH]c2ccccc12)NC(=O)CCc1ccc(O)cc1)C(N)=O) ?
3810
